- STUDY TARGET: GST-Hu-p50 (Homo sapiens, UniProt P19838 7-356)
- Sequence (P19838 7-356): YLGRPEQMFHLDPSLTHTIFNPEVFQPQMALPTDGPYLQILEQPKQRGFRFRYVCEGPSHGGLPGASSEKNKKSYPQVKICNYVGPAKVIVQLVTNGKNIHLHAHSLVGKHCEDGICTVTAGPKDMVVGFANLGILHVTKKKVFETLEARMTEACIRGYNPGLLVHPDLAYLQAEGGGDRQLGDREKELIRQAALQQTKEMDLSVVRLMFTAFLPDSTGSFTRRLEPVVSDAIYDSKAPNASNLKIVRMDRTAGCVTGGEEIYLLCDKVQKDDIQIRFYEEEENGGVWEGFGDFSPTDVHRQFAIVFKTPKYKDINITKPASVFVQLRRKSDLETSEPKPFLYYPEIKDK
- TEST NAME: protein-binding microarray (PBM); PBM: ~300 nM protein, 6 mM HEPES pH 7.8, 80 mM KCl, 0.5 mM EDTA, 0.5 mM EGTA, 6% glycerol, 35 ng/ul poly-dIdC, 1% milk, 1 h, room temperature; high values mean tight binding
- MEASUREMENT SETUP: dsDNA, one strand shown
REPORTED ENDPOINT: binding signal

CCGATTAACATCAAAATTTCCCATGATGTTAATCGGGTCTTGATTCGCTTGACGCTGCTG :: 4.79 z-score
CCGATTAACATCAAATTGTCCCCTGATGTTAATCGGGTCTTGATTCGCTTGACGCTGCTG :: 4.96 z-score
CCGATTAACATCAAAATACTCCCTGATGTTAATCGGGTCTTGATTCGCTTGACGCTGCTG :: 3.64 z-score
CCGATTAACATCAGGGGGTGGAATGATGTTAATCGGGTCTTGATTCGCTTGACGCTGCTG :: 4.42 z-score
CCGATTAACATCAGGGGGAAGAATGATGTTAATCGGGTCTTGATTCGCTTGACGCTGCTG :: 5.86 z-score

input: Given `CCGATTAACATCACCTTGAACGGTGATGTTAATCGGGTCTTGATTCGCTTGACGCTGCTG` , state its recorded binding signal.
output: 2.74 z-score

input: Given `CCGATTAACATCAGGGGGACTAATGATGTTAATCGGGTCTTGATTCGCTTGACGCTGCTG` , state its recorded binding signal.
output: 3.8 z-score

input: Given `CCGATTAACATCAGGGGACCACCTGATGTTAATCGGGTCTTGATTCGCTTGACGCTGCTG` , state its recorded binding signal.
output: 3.71 z-score

input: Given `CCGATTAACATCAACATTACCCCTGATGTTAATCGGGTCTTGATTCGCTTGACGCTGCTG` , state its recorded binding signal.
output: 3.24 z-score

input: Given `CCGATTAACATCAGGATGCCCCCTGATGTTAATCGGGTCTTGATTCGCTTGACGCTGCTG` , state its recorded binding signal.
output: 4.35 z-score

input: Given `CCGATTAACATCAAGGGGATTCCTGATGTTAATCGGGTCTTGATTCGCTTGACGCTGCTG` , state its recorded binding signal.
output: 7.29 z-score

input: Given `CCGATTAACATCAGATTTTCCCATGATGTTAATCGGGTCTTGATTCGCTTGACGCTGCTG` , state its recorded binding signal.
output: 3.82 z-score

input: Given `CCGATTAACATCAGGGGGAATCATGATGTTAATCGGGTCTTGATTCGCTTGACGCTGCTG` , state its recorded binding signal.
output: 6.66 z-score

input: Given `CCGATTAACATCAGGGGCTTCCATGATGTTAATCGGGTCTTGATTCGCTTGACGCTGCTG` , state its recorded binding signal.
output: 4.38 z-score

input: Given `CCGATTAACATCAGCACTCCCCCTGATGTTAATCGGGTCTTGATTCGCTTGACGCTGCTG` , state its recorded binding signal.
output: 5.21 z-score

====

- STUDY TARGET: GST-Nv-NF-kB (Ser allele) (Nematostella vectensis, UniProt A7UNT2 2-411)
- Sequence: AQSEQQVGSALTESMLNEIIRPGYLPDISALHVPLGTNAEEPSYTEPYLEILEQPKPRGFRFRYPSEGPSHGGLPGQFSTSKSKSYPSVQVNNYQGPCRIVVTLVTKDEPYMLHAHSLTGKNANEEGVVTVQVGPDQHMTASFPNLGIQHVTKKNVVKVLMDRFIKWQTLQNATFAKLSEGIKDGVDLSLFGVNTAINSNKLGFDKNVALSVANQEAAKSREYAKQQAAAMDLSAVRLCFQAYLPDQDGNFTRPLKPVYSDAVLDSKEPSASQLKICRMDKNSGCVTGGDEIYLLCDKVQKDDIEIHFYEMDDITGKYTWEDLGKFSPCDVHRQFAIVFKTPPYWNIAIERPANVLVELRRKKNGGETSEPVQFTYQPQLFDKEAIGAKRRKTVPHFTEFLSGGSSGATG
- TEST NAME: protein-binding microarray (PBM); PBM: ~300 nM protein, 6 mM HEPES pH 7.8, 80 mM KCl, 0.5 mM EDTA, 0.5 mM EGTA, 6% glycerol, 35 ng/ul poly-dIdC, 1% milk, 1 h, room temperature; Ap Aiptasia and Nv Nematostella (sea anemones) / Co Capsaspora / Aq Amphimedon (sponge) / Dm Drosophila / Hu human; RHD is the Rel homology domain; high values mean tight binding
- MEASUREMENT SETUP: dsDNA, one strand shown
This listing pairs sequences with measured log10(binding signal).
The base-10 logarithm of binding signal, taken with binding signal in z-score, is what appears here.

For orientation, consider the following solved cases.
CCGATTAACATCAGGGACTTCACTGATGTTAATCGGGTCTTGATTCGCTTGACGCTGCTG :: 0.61
CCGATTAACATCAGAAATTCCCCTGATGTTAATCGGGTCTTGATTCGCTTGACGCTGCTG :: 1.12
CCGATTAACATCAGGGGTGGGGATGATGTTAATCGGGTCTTGATTCGCTTGACGCTGCTG :: 0.52

Now for a further sequence.
input: Lab note: need log10(binding signal) with GST-Nv-NF-kB (Ser allele) (Nematostella vectensis, UniProt A7UNT2 2-411) for entry `CCGATTAACATCAATTTCCCGTATGATGTTAATCGGGTCTTGATTCGCTTGACGCTGCTG` , please look it up.
output: 0.64

Measured values drawn from paper PMC5700166 for this set.
